# Tested on: MDA-MB-231
# assay_details: Cytotoxicity against human MDA-MB-231 cells
# Type: functional
# measurement_setup: read-out: Log TGI (converted)
quantity_kind: TGI (µM)

compound=CC(=O)O[C@H]1C[C@H]2[C@@](C)(CC[C@H]3C(C)(C)CCC[C@@]32CO)[C@@H]2CC=C(C(C)=O)[C@H](C=O)[C@@]12C experimental_system=MDA-MB-231 quantity_kind=TGI endpoint_result=2.09
compound=CC(=O)C1=CC[C@H]2[C@]3(C)CC[C@H]4C(C)(C)CCC[C@]4(C(=O)O)[C@H]3CC(=O)[C@]2(C)[C@H]1C=O experimental_system=MDA-MB-231 quantity_kind=TGI endpoint_result=3.24
compound="CC1OC(=O)[C@H]2[C@H]1[C@@H](O)C[C@H]1[C@]3(C)CC[C@H]4C(C)(C)CCC[C@]4(C)[C@H]3C[C@@H](O)[C@]21C (some centres undefined)" experimental_system=MDA-MB-231 quantity_kind=TGI endpoint_result=40.7
compound=CC(=O)O[C@@H]1C[C@H]2[C@]3(C)CC[C@H]4C(C)(C)CCC[C@]4(C)[C@H]3C[C@H](O)[C@]2(C)[C@@H](C=O)[C@@H]1C(C)=O experimental_system=MDA-MB-231 quantity_kind=TGI endpoint_result=2.88

---

# Tested on: ACHN
# assay_details: Cytotoxicity against human ACHN cells
# Format: functional
Below, each of the molecules is paired with its reported GI50 value.
quantity_kind: GI50 (nM)

molecule="CC(=O)O[C@@H]1C[C@H]2[C@]3(C)CC[C@H]4C(C)(C)CCC[C@]4(C)[C@H]3C[C@H](O)[C@]2(C)[C@@H](C=O)[C@@H]1C(C)=O [SCALARHERBACIN A]" experimental_system=ACHN endpoint_result=457
molecule="CC1OC(=O)[C@H]2[C@H]1[C@@H](O)C[C@H]1[C@]3(C)CC[C@H]4C(C)(C)CCC[C@]4(C)[C@H]3C[C@@H](O)[C@]21C (some centres undefined)" experimental_system=ACHN endpoint_result=18200
molecule=CC(=O)C1=CC[C@H]2[C@]3(C)CC[C@H]4C(C)(C)CCC[C@]4(C(=O)O)[C@H]3CC(=O)[C@]2(C)[C@H]1C=O experimental_system=ACHN endpoint_result=479
molecule=CC(=O)O[C@H]1C[C@H]2[C@@](C)(CC[C@H]3C(C)(C)CCC[C@@]32CO)[C@@H]2CC=C(C(C)=O)[C@H](C=O)[C@@]12C experimental_system=ACHN endpoint_result=282

---

# Test system: HOP-62
# assay_details: Cytotoxicity against human HOP62 cells
# Format: functional
# measurement_setup: read-out: Log TGI (converted)
Below, each of the compounds is paired with its reported TGI value.
quantity_kind: TGI (nM)

compound="CC1OC(=O)[C@H]2[C@H]1[C@@H](O)C[C@H]1[C@]3(C)CC[C@H]4C(C)(C)CCC[C@]4(C)[C@H]3C[C@@H](O)[C@]21C (some centres undefined)" experimental_system=HOP-62 endpoint_result=28800
compound=CC(=O)O[C@H]1C[C@H]2[C@@](C)(CC[C@H]3C(C)(C)CCC[C@@]32CO)[C@@H]2CC=C(C(C)=O)[C@H](C=O)[C@@]12C experimental_system=HOP-62 endpoint_result=724
compound=CC(=O)C1=CC[C@H]2[C@]3(C)CC[C@H]4C(C)(C)CCC[C@]4(C(=O)O)[C@H]3CC(=O)[C@]2(C)[C@H]1C=O experimental_system=HOP-62 endpoint_result=2750
compound="CC(=O)O[C@@H]1C[C@H]2[C@]3(C)CC[C@H]4C(C)(C)CCC[C@]4(C)[C@H]3C[C@H](O)[C@]2(C)[C@@H](C=O)[C@@H]1C(C)=O [SCALARHERBACIN A]" experimental_system=HOP-62 endpoint_result=2240

---

# Test system: U-251
# assay_details: Cytotoxicity against human U251cells
# Type: functional
# measurement_setup: read-out: Log LC50 (the source's name) (converted)
quantity_kind: CC50

molecule=CC(=O)O[C@H]1C[C@H]2[C@@](C)(CC[C@H]3C(C)(C)CCC[C@@]32CO)[C@@H]2CC=C(C(C)=O)[C@H](C=O)[C@@]12C experimental_system=U-251 quantity_kind=CC50 endpoint_result="3.47 µM"
molecule="CC1OC(=O)[C@H]2[C@H]1[C@@H](O)C[C@H]1[C@]3(C)CC[C@H]4C(C)(C)CCC[C@]4(C)[C@H]3C[C@@H](O)[C@]21C (some centres undefined)" experimental_system=U-251 quantity_kind=CC50 endpoint_result="61.7 µM"
molecule=CC(=O)C1=CC[C@H]2[C@]3(C)CC[C@H]4C(C)(C)CCC[C@]4(C(=O)O)[C@H]3CC(=O)[C@]2(C)[C@H]1C=O experimental_system=U-251 quantity_kind=CC50 endpoint_result="5.01 µM"
molecule="CC(=O)O[C@@H]1C[C@H]2[C@]3(C)CC[C@H]4C(C)(C)CCC[C@]4(C)[C@H]3C[C@H](O)[C@]2(C)[C@@H](C=O)[C@@H]1C(C)=O [SCALARHERBACIN A]" experimental_system=U-251 quantity_kind=CC50 endpoint_result="4.27 µM"

---

# Tested on: UACC-257
# assay_details: Cytotoxicity against human UACC257 cells
# Format: functional
# measurement_setup: read-out: Log TGI (converted)
Below, each of the compounds is paired with its reported TGI value.
quantity_kind: TGI (µM)

compound=CC(=O)O[C@@H]1C[C@H]2[C@]3(C)CC[C@H]4C(C)(C)CCC[C@]4(C)[C@H]3C[C@H](O)[C@]2(C)[C@@H](C=O)[C@@H]1C(C)=O quantity_kind=TGI output_unit=µM endpoint_result=5.25
compound=CC(=O)C1=CC[C@H]2[C@]3(C)CC[C@H]4C(C)(C)CCC[C@]4(C(=O)O)[C@H]3CC(=O)[C@]2(C)[C@H]1C=O quantity_kind=TGI output_unit=µM endpoint_result=6.46
compound=CC(=O)O[C@H]1C[C@H]2[C@@](C)(CC[C@H]3C(C)(C)CCC[C@@]32CO)[C@@H]2CC=C(C(C)=O)[C@H](C=O)[C@@]12C quantity_kind=TGI output_unit=µM endpoint_result=4.37
compound="CC1OC(=O)[C@H]2[C@H]1[C@@H](O)C[C@H]1[C@]3(C)CC[C@H]4C(C)(C)CCC[C@]4(C)[C@H]3C[C@@H](O)[C@]21C (some centres undefined)" quantity_kind=TGI output_unit=µM endpoint_result=83.2

---

# Tested on: OVCAR-5
# assay_details: Cytotoxicity against human OVCAR5 cells
# Assay type: functional
# measurement_setup: read-out: Log TGI (converted)
Below, each of the compounds is paired with its reported TGI value.
quantity_kind: TGI (µM)

compound="CC1OC(=O)[C@H]2[C@H]1[C@@H](O)C[C@H]1[C@]3(C)CC[C@H]4C(C)(C)CCC[C@]4(C)[C@H]3C[C@@H](O)[C@]21C (some centres undefined)" output_unit=µM endpoint_result=39.8
compound=CC(=O)C1=CC[C@H]2[C@]3(C)CC[C@H]4C(C)(C)CCC[C@]4(C(=O)O)[C@H]3CC(=O)[C@]2(C)[C@H]1C=O output_unit=µM endpoint_result=4.07
compound=CC(=O)O[C@@H]1C[C@H]2[C@]3(C)CC[C@H]4C(C)(C)CCC[C@]4(C)[C@H]3C[C@H](O)[C@]2(C)[C@@H](C=O)[C@@H]1C(C)=O output_unit=µM endpoint_result=2.63
compound=CC(=O)O[C@H]1C[C@H]2[C@@](C)(CC[C@H]3C(C)(C)CCC[C@@]32CO)[C@@H]2CC=C(C(C)=O)[C@H](C=O)[C@@]12C output_unit=µM endpoint_result=2.09

---

# Tested on: ACHN
# assay_details: Cytotoxicity against human ACHN cells
# Assay type: functional
quantity_kind: LC50 (µM)

compound=CC(=O)O[C@@H]1C[C@H]2[C@]3(C)CC[C@H]4C(C)(C)CCC[C@]4(C)[C@H]3C[C@H](O)[C@]2(C)[C@@H](C=O)[C@@H]1C(C)=O experimental_system=ACHN quantity_kind=LC50 endpoint_result=3.98
compound=CC(=O)C1=CC[C@H]2[C@]3(C)CC[C@H]4C(C)(C)CCC[C@]4(C(=O)O)[C@H]3CC(=O)[C@]2(C)[C@H]1C=O experimental_system=ACHN quantity_kind=LC50 endpoint_result=4.17
compound="CC1OC(=O)[C@H]2[C@H]1[C@@H](O)C[C@H]1[C@]3(C)CC[C@H]4C(C)(C)CCC[C@]4(C)[C@H]3C[C@@H](O)[C@]21C (some centres undefined)" experimental_system=ACHN quantity_kind=LC50 endpoint_result=56.2
compound=CC(=O)O[C@H]1C[C@H]2[C@@](C)(CC[C@H]3C(C)(C)CCC[C@@]32CO)[C@@H]2CC=C(C(C)=O)[C@H](C=O)[C@@]12C experimental_system=ACHN quantity_kind=LC50 endpoint_result=3.24

Source: ChEMBL document CHEMBL1141332
